The reported numbers originate from paper PMC11404609.

test: Plasma pharmacokinetics of AP after oral administration in rats; type: in vivo; settings: Sprague-Dawley, rat, plasma, po, 120 mg/kg, rats, AP 120 mg/kg oral gavage, Control group (Table 2), mean ± SD, n = 4
Measured Attribute: Tmax (min)
Your answer should be a plain number; it is taken to be in min.

Enquiry: Entry C=C1CC[C@@H]2[C@](C)(CO)[C@H](O)CC[C@@]2(C)[C@@H]1C/C=C1/C(=O)OC[C@H]1O [AP, Andrographolide] has what Tmax?
Return: 30

###

assay: Plasma pharmacokinetics of AP after oral administration in rats; type: in vivo; details: Sprague-Dawley, rat, plasma, po, 120 mg/kg, rats, AP 120 mg/kg oral gavage, Inhibitor group (bromocriptine mesylate 20 mg/kg p.o. 1 week before), mean ± SD, n = 4
Measured Attribute: Cmax (ng/mL)
A number alone suffices; assume ng/mL.

Enquiry: Please look up its Cmax: C=C1CC[C@@H]2[C@](C)(CO)[C@H](O)CC[C@@]2(C)[C@@H]1C/C=C1/C(=O)OC[C@H]1O [AP, Andrographolide]
Return: 2750
